Molecular target: Monoamine transporters; Norepinephrine & dopamine (Homo sapiens) (UniProt Q01959+P23975)
Sequence (P23975 whole entry, looked up): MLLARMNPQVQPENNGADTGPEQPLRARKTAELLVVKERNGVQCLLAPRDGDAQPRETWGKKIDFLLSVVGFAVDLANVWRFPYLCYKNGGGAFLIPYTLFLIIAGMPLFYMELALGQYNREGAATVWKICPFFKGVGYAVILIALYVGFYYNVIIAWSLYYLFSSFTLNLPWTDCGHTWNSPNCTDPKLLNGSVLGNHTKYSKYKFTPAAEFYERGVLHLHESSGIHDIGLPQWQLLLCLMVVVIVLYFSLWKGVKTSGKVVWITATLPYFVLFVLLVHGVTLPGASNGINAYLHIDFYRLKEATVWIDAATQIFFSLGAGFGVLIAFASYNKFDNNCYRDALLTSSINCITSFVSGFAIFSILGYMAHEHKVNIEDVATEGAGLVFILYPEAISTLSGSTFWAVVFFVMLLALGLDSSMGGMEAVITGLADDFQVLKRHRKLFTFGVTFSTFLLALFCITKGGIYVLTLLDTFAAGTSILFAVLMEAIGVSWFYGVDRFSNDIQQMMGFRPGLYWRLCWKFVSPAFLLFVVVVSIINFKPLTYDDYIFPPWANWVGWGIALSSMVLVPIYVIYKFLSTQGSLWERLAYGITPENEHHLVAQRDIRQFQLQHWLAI
Sequence (Q01959 whole entry, looked up): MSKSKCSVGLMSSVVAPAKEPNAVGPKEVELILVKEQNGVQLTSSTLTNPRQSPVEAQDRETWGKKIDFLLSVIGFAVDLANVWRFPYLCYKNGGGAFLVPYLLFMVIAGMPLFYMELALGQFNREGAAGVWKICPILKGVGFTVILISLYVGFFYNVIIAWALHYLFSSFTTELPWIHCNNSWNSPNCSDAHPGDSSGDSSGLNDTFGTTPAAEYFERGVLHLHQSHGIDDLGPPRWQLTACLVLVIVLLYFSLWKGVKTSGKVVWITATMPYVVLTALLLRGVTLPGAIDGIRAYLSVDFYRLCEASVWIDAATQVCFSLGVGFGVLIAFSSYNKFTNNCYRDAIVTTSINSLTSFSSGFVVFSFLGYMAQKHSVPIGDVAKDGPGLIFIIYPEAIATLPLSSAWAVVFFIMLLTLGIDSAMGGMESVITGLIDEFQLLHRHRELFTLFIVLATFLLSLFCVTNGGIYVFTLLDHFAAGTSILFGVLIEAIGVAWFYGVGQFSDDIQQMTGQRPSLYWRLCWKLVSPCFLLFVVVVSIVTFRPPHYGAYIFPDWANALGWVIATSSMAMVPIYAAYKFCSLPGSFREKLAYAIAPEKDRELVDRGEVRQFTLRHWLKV
Experiment: Ratio for uptake of NE over DA
Assay type: protein assay
Given measured Ratio Ki, output y if it is greater than or equal to 40 and n if not.

Solved cases below.
# smilesText, labelClass
records = [
    ("N[C@@H](Cc1ccccc1)CN1CCC(CCOC(c2ccc(F)cc2)c2ccc(F)cc2)CC1", "n"),
    ("O[C@H](CCc1ccccc1)CN1CCC(CCOC(c2ccc(F)cc2)c2ccc(F)cc2)CC1", "y"),
    ("C[C@@H](CCN1CCC(CCOC(c2ccc(F)cc2)c2ccc(F)cc2)CC1)c1ccccc1", "n"),
    ("N[C@H](Cc1ccccc1)CN1CCC(CCOC(c2ccc(F)cc2)c2ccc(F)cc2)CC1", "n"),
    ("C[C@@H](Cc1ccccc1)CN1CCC(CCOC(c2ccc(F)cc2)c2ccc(F)cc2)CC1", "y"),
]

Kindly review the next compound as well.
Exercise: Textbook exercise: given the entry `O[C@H](Cc1ccccc1)CN1CCC(CCOC(c2ccc(F)cc2)c2ccc(F)cc2)CC1` , state whether its Ratio Ki is greater than or equal to 40.
Solution: y

----------
Target: Sodium-dependent serotonin transporter (Homo sapiens, UniProt P31645)
Sequence (P31645 whole entry): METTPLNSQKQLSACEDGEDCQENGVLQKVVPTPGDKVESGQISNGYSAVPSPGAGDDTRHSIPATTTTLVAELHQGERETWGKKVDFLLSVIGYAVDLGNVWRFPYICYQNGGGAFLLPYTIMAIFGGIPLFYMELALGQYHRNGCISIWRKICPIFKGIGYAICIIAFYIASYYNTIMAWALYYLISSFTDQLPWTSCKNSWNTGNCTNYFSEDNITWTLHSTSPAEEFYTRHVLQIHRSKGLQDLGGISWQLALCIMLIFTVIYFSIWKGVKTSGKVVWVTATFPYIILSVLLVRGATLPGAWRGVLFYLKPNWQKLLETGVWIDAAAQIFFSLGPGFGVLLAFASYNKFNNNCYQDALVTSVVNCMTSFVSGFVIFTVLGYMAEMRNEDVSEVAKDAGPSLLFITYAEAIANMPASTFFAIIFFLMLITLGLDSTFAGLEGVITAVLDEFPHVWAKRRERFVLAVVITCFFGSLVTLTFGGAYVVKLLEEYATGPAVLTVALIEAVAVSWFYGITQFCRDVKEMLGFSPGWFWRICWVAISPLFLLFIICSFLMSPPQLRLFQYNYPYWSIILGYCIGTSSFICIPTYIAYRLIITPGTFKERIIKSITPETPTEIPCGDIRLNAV
Assay: Displacement of [125I]RTI-55 from SERT
pKi values by entry
Notebook: values listed as pKi are -log10 of the concentration (mol/L).

Take a look at these entries with their results.
# smilesText, pKi
data = [
    ("O[C@H](Cc1ccccc1)CN1CCC(CCOC(c2ccccc2)c2ccccc2)CC1", 6.54),
    ("O[C@H](CCN1CCC(CCOC(c2ccccc2)c2ccccc2)CC1)c1ccccc1", 6.55),
    ("O[C@@H](CCN1CCC(CCOC(c2ccc(F)cc2)c2ccc(F)cc2)CC1)c1ccccc1", 7.66),
    ("O[C@H](Cc1ccccc1)CN1CCC(CCOC(c2ccc(F)cc2)c2ccc(F)cc2)CC1", 7.04),
]

Exercise: Checklist item: pKi tested on Sodium-dependent serotonin transporter (Homo sapiens, UniProt P31645), entry `C[C@H](CCN1CCC(CCOC(c2ccc(F)cc2)c2ccc(F)cc2)CC1)c1ccccc1` , value?
Solution: 7.24

Exercise: Checklist item: pKi tested on Sodium-dependent serotonin transporter (Homo sapiens, UniProt P31645), entry `C[C@H](Cc1ccccc1)CN1CCC(CCOC(c2ccc(F)cc2)c2ccc(F)cc2)CC1` , value?
Solution: 7.28

Exercise: Checklist item: pKi tested on Sodium-dependent serotonin transporter (Homo sapiens, UniProt P31645), entry `Fc1ccc(C(OCCC2CCN(CC3=Cc4ccccc4CC3)CC2)c2ccc(F)cc2)cc1` , value?
Solution: 6.90

Exercise: Checklist item: pKi tested on Sodium-dependent serotonin transporter (Homo sapiens, UniProt P31645), entry `O[C@@H](CCc1ccccc1)CN1CCC(CCOC(c2ccc(F)cc2)c2ccc(F)cc2)CC1` , value?
Solution: 7.42

Exercise: Checklist item: pKi tested on Sodium-dependent serotonin transporter (Homo sapiens, UniProt P31645), entry `O[C@H](CCN1CCC(CCOC(c2ccc(F)cc2)c2ccc(F)cc2)CC1)c1ccccc1` , value?
Solution: 7.37

Exercise: Checklist item: pKi tested on Sodium-dependent serotonin transporter (Homo sapiens, UniProt P31645), entry `C[C@@H](CCN1CCC(CCOC(c2ccc(F)cc2)c2ccc(F)cc2)CC1)c1ccccc1` , value?
Solution: 7.52
